I'd appreciate it if you could supply viability, T/C values for the items below.
Tested on: 596521-263-R-J1-PDC complex spheroids, viability % of control;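 also: spheroids exposed to drugs for 7 days before viability reading; 100% = DMSO vehicle control viability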
protocol.description: Anticancer human tumor 596521-263-R-J1-PDC patient-derived soft tissue sarcoma cell line growth inhibition [GQUAD]
condition.description: second compound 1 µM; first compound 0.00999 µM; stronger effect = lower value
Give the value, in units of %, as a plain number.

Prompt: Please look up its viability, T/C: CCc1c2c(nc3ccc(O)cc13)-c1cc3c(c(=O)n1C2)COC(=O)[C@]3(O)CC + CN(C)c1ccc(Nc2c3ccc(NC(=O)CCN4CCCC4)cc3nc3cc(NC(=O)CCN4CCCC4)ccc23)cc1
Response: 47.5

Prompt: Please look up its viability, T/C: Cn1ncnc1[C@H]1c2n[nH]c(=O)c3cc(F)cc(c23)N[C@@H]1c1ccc(F)cc1 + CN(C)c1ccc(Nc2c3ccc(NC(=O)CCN4CCCC4)cc3nc3cc(NC(=O)CCN4CCCC4)ccc23)cc1
Response: 99.8

Prompt: Please look up its viability, T/C: CC[C@@]1(O)C(=O)OCc2c1cc1n(c2=O)Cc2cc3c(CN(C)C)c(O)ccc3nc2-1 + Cc1cnc(CNC(=O)c2c(=O)c3ccc(N4CCCN(C)CC4)nc3n3c2sc2ccccc23)cn1
Response: 60.4

Prompt: Please look up its viability, T/C: CC[C@@]1(O)C(=O)OCc2c1cc1n(c2=O)Cc2cc3c(CN(C)C)c(O)ccc3nc2-1 + CN(C)c1ccc(Nc2c3ccc(NC(=O)CCN4CCCC4)cc3nc3cc(NC(=O)CCN4CCCC4)ccc23)cc1
Response: 86.1

Prompt: Please look up its viability, T/C: Cn1ncnc1[C@H]1c2n[nH]c(=O)c3cc(F)cc(c23)N[C@@H]1c1ccc(F)cc1 + Cc1cnc(CNC(=O)c2c(=O)c3ccc(N4CCCN(C)CC4)nc3n3c2sc2ccccc23)cn1
Response: 60.5

Prompt: Please look up its viability, T/C: Cc1[nH]c2ccccc2c1CCNCc1ccc(/C=C/C(=O)NO)cc1 + Cc1[nH]c2ccc(F)cc2c1-c1nc2c3cccnc3c3ncccc3c2[nH]1
Response: 91.4

Prompt: Please look up its viability, T/C: CC[C@@]1(O)C(=O)OCc2c1cc1n(c2=O)Cc2cc3c(CN(C)C)c(O)ccc3nc2-1 + Cc1[nH]c2ccc(F)cc2c1-c1nc2c3cccnc3c3ncccc3c2[nH]1
Response: 79.7

Prompt: Please look up its viability, T/C: CCc1c2c(nc3ccc(O)cc13)-c1cc3c(c(=O)n1C2)COC(=O)[C@]3(O)CC + Cc1[nH]c2ccc(F)cc2c1-c1nc2c3cccnc3c3ncccc3c2[nH]1
Response: 50.3

Prompt: Please look up its viability, T/C: CCc1c2c(nc3ccc(O)cc13)-c1cc3c(c(=O)n1C2)COC(=O)[C@]3(O)CC + Cc1cnc(CNC(=O)c2c(=O)c3ccc(N4CCCN(C)CC4)nc3n3c2sc2ccccc23)cn1
Response: 52.6

Prompt: Please look up its viability, T/C: Cn1ncnc1[C@H]1c2n[nH]c(=O)c3cc(F)cc(c23)N[C@@H]1c1ccc(F)cc1 + Cc1[nH]c2ccc(F)cc2c1-c1nc2c3cccnc3c3ncccc3c2[nH]1
Response: 88.6

Prompt: Please look up its viability, T/C: Cc1[nH]c2ccccc2c1CCNCc1ccc(/C=C/C(=O)NO)cc1 + CN(C)c1ccc(Nc2c3ccc(NC(=O)CCN4CCCC4)cc3nc3cc(NC(=O)CCN4CCCC4)ccc23)cc1
Response: 75.6

Prompt: Please look up its viability, T/C: Cc1[nH]c2ccccc2c1CCNCc1ccc(/C=C/C(=O)NO)cc1 + Cc1cnc(CNC(=O)c2c(=O)c3ccc(N4CCCN(C)CC4)nc3n3c2sc2ccccc23)cn1
Response: 67.8
